Cited source for all entries: the supplement of paper PMC10567573

Quick list: protein stability index per entry.
B1: ADD1 (parent)
chain: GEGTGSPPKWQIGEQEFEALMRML

Variants of: B1
experiment-summary: protein stability index of a GFP-peptide fusion (GPS, HEK-293T) (PSI 1-6); higher = more stable;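 also: lentivirally expressed fusions sorted by FACS into six bins by GFP to DsRed ratio, PSI derived from sequencing read proportions per bin multiplied by bin number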
condition-summary: c terminus: a fixed tail appended

- sequence-text: "GEITGSPPKWQIGEQEFEALMRML [G3I]"
  protein stability index: 3

Lab note: GEGTGSPPKWQIGEQEFEALMTML [R22T] gave protein stability index of 3

protein stability index reading for GEGNGSPPKWQIGEQEFEALMRML [T4N] : 3.07
